Target: lipase
Assay: lipase assay, 384-well SPA format (YSi SPA beads)
Assay type: biochemical
Conditions: 30 nM lipase, room temperature, 60 minutes, read-out: IC50 inhibition of lipase activity
pIC50: −log10 of the molar value.

# STRUCTURE, pIC50
measured = [
    ("CC[C@@H](C)[C@@H](O)[C@H](C)C(=O)[C@H](C)/C=C(\\C)C[C@H](C)[C@@H]1OC(=O)[C@H]1CC", 4.49),
]

###

Molecular target: lipase
Assay: lipase assay, 96-well SPA format, 'on bead'
Assay type: biochemical
Details: YSi beads, 5 nM lipase, room temperature, 60 minutes, read-out: IC50 inhibition of lipase activity

# STRUCTURE, IC50 (µM)
records = [
    ("CC[C@@H](C)[C@@H](O)[C@H](C)C(=O)[C@H](C)/C=C(\\C)C[C@H](C)[C@@H]1OC(=O)[C@H]1CC", 27.5),
]

###

Target: lipase
Assay: lipase assay, 384-well LEADseeker format (YOx LEADseeker beads)
Format: biochemical
Conditions: 30 nM lipase, room temperature, 60 minutes, read-out: IC50 inhibition of lipase activity

# MOLECULE, IC50 (µM)
data = [
    ("CC[C@@H](C)[C@@H](O)[C@H](C)C(=O)[C@H](C)/C=C(\\C)C[C@H](C)[C@@H]1OC(=O)[C@H]1CC [Ebelactone B]", 18.2),
]
